PROTOCOL DETAILS: Cytotoxicity by MTT method
Type: cell-based
TEST PARAMETERS: human, MT-4 cells, 5 days, read-out: CD50
MEASURED PROPERTY: CC50 at 120 h

QUERY: Annotate the compound Cc1cn([C@H]2C[C@H](N=[N+]=[N-])[C@@H](CO)O2)c(=O)[nH]c1=O [AZT, azidothymidione, reference compound] with its measured CC50 at 120 h.
RESULT: > 1 µg/mL

Source listed as patent EP0442663A1.
